Tested on: L. infantum promastigote forms
Experiment: In vitro activity against promastigote forms
Type: cell-based
Details: Leishmania infantum, 48 h, 27 °C, means of three separate experiments, read-out: Compound IC50 Promastigote Forms
The reader will find reported log10 IC50 values listed item by item below.
Response schema: value (number) is log10 of IC50 in units of µM.

Solved cases below.
c1cc2nc(c1)CNCCCNCCCNCCNCCCNCCCNC2 [Py33233]	2.68
c1cc2nc(c1)CNCCCNCCNCCNCCCNC2 [Py3223]	2.28
c1cc2cc(c1)CNCCNCCCNCCNC2 [mB232]	2.31
c1cc2nc(c1)CNCCCNCCCCNC2 [Py34]	1.75
c1cc2cc(c1)CNCCCNCCNCCNCCCNC2 [mB3223]	1.80
c1cc2nc(c1)CNCCCNCCNCCCNCCNCCCNC2 [Py32323]	1.96
c1cc2nc(c1)CNCCCNCCNCCNCCNCCCNC2 [Py32223]	1.97
c1cc2cc(c1)CNCCCNCCNCCCNC2 [mB323]	1.98
c1cc2ccc1CNCCNCCCNCCNC2 [pB232]	2.56
c1c2n[nH]c1CNCCNCCCNCCNC2 [PZ232]	1.11

Read the next record carefully.
Exercise: // lookup log10 IC50 for c1cc2nc(c1)CNCCCNCCCNCCCNC2 [Py333]
Solution: 1.48
